pIC50: recorded values
- Measurement target: T1, human TSLP-Fc (human, biotin-labeled)
- T1 construct: Prepared in-house; also called biotin-labeled human TSLP-Fc; TSLP-Fc-biotin
- Assay: competitive ELISA: antibody pre-mixed with biotin-labeled human TSLP-Fc; blocked binding to coated human TSLPR-Fc/IL7Ra-Fc
Keep in mind that pIC50 stands for -log10 of concentration in molar terms.

Query (binder): mouse 1C5F12E9 (antibody, V domains shown, also called mouse anti-TSLP 1C5F12E9 antibody) VH: QVQLQQPGTELVKPGASVKMSCKASGYTFTTYWMHWVKQRPGQGLEWIGVIDPSDSDTTYNQKFKGKATLTVDTSSSTAYMQLSSLTSEDSAVYYCTRSLDGYYDYWGQGTTLTVSS VL: DIQMTQSPASLSASVGETVTITCRPTENIYSYLAWYQQKQGKSPHLLVYFARTLAEGVPSRFSGSGSGTQFSLKINSLQPEDFGIYYCQHHYGTPWTFGGGTKLEIK ; field requested: pIC50
9.41

Query (binder): Tezepelumab (antibody, human IgG2, lambda, V domains shown, also called TSLP-BM; benchmark) VH: QMQLVESGGGVVQPGRSLRLSCAASGFTFRTYGMHWVRQAPGKGLEWVAVIWYDGSNKHYADSVKGRFTITRDNSKNTLNLQMNSLRAEDTAVYYCARAPQWELVHEAFDIWGQGTMVTVSS VL: SYVLTQPPSVSVAPGQTARITCGGNNLGSKSVHWYQQKPGQAPVLVVYDDSDRPSWIPERFSGSNSGNTATLTISRGEAGDEADYYCQVWDSSSDHVVFGGGTKLTVLG ; field requested: pIC50
9.30

Query (binder): Mouse D1C2H1H1 (antibody, V domains shown, Mouse hybridoma mAb) VH: QVTLKESGPGILQPSQTLSLTCSFSGFSLSTYGMGIGWIRLPSGKGLEWLASIWWDDNRYFNAALKSRLTISKDASKNQVFLKIASVDTADTATYYCARIEDGYYSYHSYWGQGTLVTVSA VL: DIVLTQSPASLAVSLGQRATISCKASQSVDFDGDSYMNWFQQKPGQPPKLLIYAASNLVSGIPARFSGSGSGTDFTLNIHPVEEEDAATYYCQQIDEDPYTFGGGTKLEIE ; field requested: pIC50
9.94

Query (binder): Mouse D1D8H9F7 (antibody, V domains shown, Mouse hybridoma mAb) VH: QVQLQQSGADLVRPGSSVKISCKTSGFAFSSYYMNWVKQRPGQGLEWIGQIYPGDGETNYNGKFKDKATLTADKSSSTVYMQLSSLTSEDSAVYFCARAGYSDYVYAMDYWGQGTSVTVSS VL: EIVLTQSPALMAASPGEKVTIICSVSSSITSSNLHWYQQKSETSPKPWIYGTSNLASGVPVRFSGSGSGTSYSLTISSMEAEDAATYYCQQWSSFPLTFGSGTKLEIK ; field requested: pIC50
9.30

Origin of the recorded values: patent US20220289833A1
